Cited source: paper PMC9133015

# Assay Explanation: Pharmacokinetic profiles
# Type: in vivo
# Test Context: SD, rat, serum, po, 10 mg/kg, SD rats, PO 10 mg/kg, 0.083 h; read-out: Con. (individual rats NO.1-3)
Result Type: concentration at 0.083 h (ng/mL)

| Compound String | Numeric Result |
| --- | --- |
| CCN1CCN(C(=O)c2ccc(Nc3ncc(F)c(-c4ccc5nc(N(C)C)sc5c4)n3)nc2)CC1 | 9.72 |

---

Measured % Inhibition accompanies every entry in the list below.
# Study System: DYRK2 (Homo sapiens, UniProt Q92630)
# Construct: purchased Reaction Biology Corporation (assay service)
# Sequence (Q92630 whole entry): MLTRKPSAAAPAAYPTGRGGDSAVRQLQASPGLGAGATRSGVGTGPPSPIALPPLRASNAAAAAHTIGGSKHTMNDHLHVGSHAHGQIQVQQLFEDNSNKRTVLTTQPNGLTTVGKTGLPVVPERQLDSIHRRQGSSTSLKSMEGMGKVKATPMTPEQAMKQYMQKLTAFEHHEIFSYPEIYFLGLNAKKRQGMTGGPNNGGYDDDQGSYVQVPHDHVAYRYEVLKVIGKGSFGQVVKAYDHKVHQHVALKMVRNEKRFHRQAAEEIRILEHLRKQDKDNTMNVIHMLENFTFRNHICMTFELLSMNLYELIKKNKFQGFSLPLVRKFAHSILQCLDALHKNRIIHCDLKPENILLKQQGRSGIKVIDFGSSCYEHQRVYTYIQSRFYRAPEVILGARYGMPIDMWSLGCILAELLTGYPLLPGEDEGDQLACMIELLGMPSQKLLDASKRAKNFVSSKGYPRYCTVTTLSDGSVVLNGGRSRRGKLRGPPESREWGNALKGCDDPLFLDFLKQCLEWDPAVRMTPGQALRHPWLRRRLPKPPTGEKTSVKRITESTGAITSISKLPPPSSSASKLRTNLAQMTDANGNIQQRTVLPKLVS
# Assay Explanation: DYRKs kinase activity assay (33P-ATP, DYRKtide substrate): DYRK2
# Format: biochemical
# Test Context: DYRK2 kinase; Conc. 3.33333 µM; duplicate values

| Molecule | % Inhibition (%) |
| --- | --- |
| CC(C)(C)OC(=O)N1CCN(Cc2ccc(Nc3ncc(F)c(-c4ccc5ncsc5c4)n3)nc2)CC1 [Compound 17] | 58.92 |
| CCN1CCN(C(=O)c2ccc(Nc3nc(-c4ccc5nc(N(C)C)sc5c4)c4sccc4n3)nc2)CC1 [Compound 27] | 2.76 |
| CCN1CCN(C(=O)c2cnc(Nc3ncc(F)c(-c4ccc5ncsc5c4)n3)nc2)CC1 [Compound 22] | 75.98 |
| Cl.Fc1cnc(Nc2ccc(N3CCNCC3)cn2)nc1-c1ccc2ncsc2c1 [Compound 21] | 94.50 |
